experimental_readout: melting point

INSERT INTO results (compound, experimental_readout, measured_result) VALUES
  ('N#CCN1C(=O)SC(=Cc2ccc(OCCc3ccccc3)cc2)C1=O', 'melting point', '155 to 157 °C'),
  ('Cc1cnc(N)c2nc(C)n(CC(C)C)c12', 'melting point', '178 to 180 °C'),
  ('CN(C)S(=O)(=O)c1ccc2ccc3ccccc3c(=O)c2c1', 'melting point', '130 to 136 °C'),
  ('CCCCCc1cc(O)c2c(c1)OC(C)(C)CC2C1=CCN(Cc2ccc3ccccc3c2)CC1 (configuration not stated)', 'melting point', '49 to 51.5 °C'),
  ('Fc1ccc(-n2nccc2NC2=NCCN2)cc1', 'melting point', '195 to 197 °C');

Field melting point (entry O=C(O)C(Cc1ccccc1)Oc1ccc(-c2ccc(-c3c(Cc4ccccc4)oc4ccccc34)cc2)cc1 (configuration not stated) ) reads 164 to 166 °C

Field melting point (entry CC(=O)NCC1(c2ccccc2)CCN(CCC(c2ccccc2)(c2ccccc2)c2ccccc2)CC1 ) reads 154 to 167 °C

Field melting point (entry COc1ccc(-c2nn(CC(C)C)c3c(F)cccc23)c(OC)c1 ) reads 92 to 93 °C

Field melting point (entry CCc1cn(C[C@@H](C)O)c2ccc(F)cc12 ) reads 65 to 67 °C

Field melting point (entry CN(C(=O)C1(C(=O)O)CC1)c1ccc(Cl)cc1 ) reads 156 to 158 °C

Field melting point (entry CCn1nc(-c2cccs2)c(C(=O)OCCOC(C)=O)c(Nc2cnccc2C)c1=O ) reads 161 to 162 °C

Field melting point (entry Cc1cn(Nc2ccncc2F)c2ccc(OCc3ccccc3)cc12 ) reads 210 to 213 °C

Field melting point (entry COCC(=O)C1CCC2C3CCC4CC(O)CCC4(C)C3C(=O)CC12C (configuration not stated) ) reads 144 to 146 °C

Field melting point (entry NC(=O)c1cccc(NS(=O)(=O)c2ccc([N+](=O)[O-])cc2)c1 ) reads 240 to 244 °C

Field melting point (entry O=C(Cc1ccccc1)Cc1ccc(Cl)c(Cl)c1 ) reads 131 to 133 °C

Field melting point (entry CCCc1nc2c(N)nc3ccc(-c4ccc(CO)cc4)cc3c2s1 ) reads 212 to 214 °C

Field melting point (entry CCCOc1ccc(S(=O)(=O)N2CCN(CC)CC2)cc1-c1nc2cc(N)c([N+](=O)[O-])cc2c(=O)[nH]1 ) reads 248 to 250 °C

Field melting point (entry CCOC(=O)N1CCN(c2nc(NC3CC3)ccc2F)CC1 ) reads 68 to 70 °C

Field melting point (entry CC(=O)OCC1(C)OCC2(CO1)COC(C)(COC(C)=O)OC2 (configuration not stated) ) reads 66 to 67 °C

Field melting point (entry Nc1ccc(C(=O)NC2CCN(c3ccccc3)C2)cc1 (configuration not stated) ) reads 213 to 216 °C

###

experimental_readout: melting point (°C)
Answer in °C, number only, no unit symbol.

Consider the following illustrative entries.
INSERT INTO results (compound, experimental_readout, measured_result) VALUES
  ('Nc1cccc(CNC(=O)C2Cc3ccccc3N2S(=O)(=O)c2ccc(-c3cccc(C(F)(F)F)c3)cc2)c1 (stereo not given)', 'melting point', 82),
  ('Clc1nccc(N[C@H]2CC[C@@H](c3ccccc3)CC2)c1Br', 'melting point', 105),
  ('O=c1oc2ccccc2c(OCCN2CCOCC2)c1-c1ccccc1', 'melting point', 97);

Now look at this one.
Field melting point (entry CC(C)Cc1nc2c(C(F)(F)F)cccc2c(O)c1C(=O)O ) reads 200
